Source: patent US10722501B2

# measurementTarget: recombinant full-length human prolyl endopeptidase (PREP) (Homo sapiens, UniProt P48147)
# Construct: To recombinant full-length human prolyl endopeptidase (PREP, R&D-Systems, 4308-SE)
# Sequence (P48147 1-710): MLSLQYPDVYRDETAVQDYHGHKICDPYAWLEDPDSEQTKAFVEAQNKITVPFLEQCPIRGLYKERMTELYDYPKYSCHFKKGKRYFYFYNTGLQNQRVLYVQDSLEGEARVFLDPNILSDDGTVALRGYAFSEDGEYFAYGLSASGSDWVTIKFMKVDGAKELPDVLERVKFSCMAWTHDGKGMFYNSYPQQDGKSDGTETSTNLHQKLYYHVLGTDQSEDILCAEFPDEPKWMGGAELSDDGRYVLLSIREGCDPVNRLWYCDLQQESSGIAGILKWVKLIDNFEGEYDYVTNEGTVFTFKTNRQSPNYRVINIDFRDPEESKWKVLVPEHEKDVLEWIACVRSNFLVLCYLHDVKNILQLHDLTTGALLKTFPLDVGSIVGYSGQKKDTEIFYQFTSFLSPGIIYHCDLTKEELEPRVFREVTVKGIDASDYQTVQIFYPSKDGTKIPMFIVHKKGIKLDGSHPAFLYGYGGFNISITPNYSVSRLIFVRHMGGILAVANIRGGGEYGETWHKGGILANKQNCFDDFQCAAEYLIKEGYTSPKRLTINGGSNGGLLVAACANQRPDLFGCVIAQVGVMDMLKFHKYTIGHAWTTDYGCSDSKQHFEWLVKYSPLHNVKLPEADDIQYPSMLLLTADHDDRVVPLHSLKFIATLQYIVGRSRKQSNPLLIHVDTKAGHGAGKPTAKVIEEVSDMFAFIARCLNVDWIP
# assayComment: Biochemical human prolyl endopeptidase (PREP) assay with fluorescently labelled substrate
# particulars: substrate Z-Gly-Pro-AMC 50 μM, 32° C., 60 min; some as mean values from multiple independent determinations
met if IC50 is below 4 nM. not met if not; exact matches included in not met.

Consider the following illustrative entries.
>>> answerlabel("O=C([C@@H]1CCCc2nn(Cc3ncc(Cl)cc3F)c(=O)n21)N1CCC(F)(F)C1 [Example 406]")
"met"
>>> answerlabel("O=C([C@@H]1CCCc2nn(Cc3csc(C(F)(F)F)n3)c(=O)n21)N1CCC(F)(F)C1 [Example 364]")
"not met"
>>> answerlabel("O=C(C1CC(C(F)(F)F)Cc2nn(Cc3ccnc(C(F)(F)F)c3F)c(=O)n21)N1CC[C@H](F)C1 (single isomer, unassigned) [Example 257]")
"met"

Report whether reported IC50 is lower than 4 nM (strictly) for O=C([C@@H]1CCCc2nn(Cc3nccc(C(F)(F)F)c3Cl)c(=O)n21)N1CC[C@H](O)C1 [Example 391]
not met

Please let me know if Cc1ccc(Cn2nc3n(c2=O)[C@H](C(=O)N2CC[C@@H](F)C2)CCC3)cc1 [Example 111] shows IC50 below 4 nM.
met

Given the entry Cc1ccc(Cn2nc3n(c2=O)C(C(=O)N2CCC(C)CC2)CCC3)cc1 (racemic) [Example 160] , would its reported IC50 be below 4 nM?
not met

Find out if reported IC50 for O=C([C@@H]1CCCc2nn(Cc3ccc(C(F)(F)F)nc3)c(=O)n21)N1CCC2CC21 (single isomer, unassigned) [Example 201] is less than 4 nM
not met
